Test system: 282377-053-R-J1-PDC complex spheroid viability;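 note: spheroids exposed to compounds for seven days; 100% = DMSO vehicle control viability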
Assay: Anticancer human tumor 282377-053-R-J1-PDC patient-derived colon adenocarcinoma cell line growth inhibition [POLQ]
Conditions: second compound 0.0316 µM; first compound 0.1 µM; stronger effect = lower value

{"compound": "Cn1ncnc1[C@H]1c2n[nH]c(=O)c3cc(F)cc(c23)N[C@@H]1c1ccc(F)cc1 + Cc1cccc(N(C)C(=O)C2C(O)CCN2c2nc(C)cc(C(F)(F)F)c2C#N)c1", "subject of test": "282377-053-R-J1-PDC complex spheroid viability", "viability, T/C": "89.3%"}
{"compound": "C=CCn1c(=O)c2cnc(Nc3ccc(N4CCN(C)CC4)cc3)nc2n1-c1cccc(C(C)(C)O)n1 + Cc1cccc(N(C)C(=O)C2C(O)CCN2c2nc(C)cc(C(F)(F)F)c2C#N)c1", "subject of test": "282377-053-R-J1-PDC complex spheroid viability", "viability, T/C": "96.9%"}
{"compound": "Nc1ccn(C2OC(CO)C(O)C2(F)F)c(=O)n1 (stereo not drawn) + Nc1ccc(C#CCN(C(=O)Cc2ncc(C(F)(F)F)cc2C(F)(F)F)c2ccc(F)cc2)nn1", "subject of test": "282377-053-R-J1-PDC complex spheroid viability", "viability, T/C": "128%"}

Data credit: PubChem BioAssay AID1963852
